B1: Pistol ribozyme (parent)
chain: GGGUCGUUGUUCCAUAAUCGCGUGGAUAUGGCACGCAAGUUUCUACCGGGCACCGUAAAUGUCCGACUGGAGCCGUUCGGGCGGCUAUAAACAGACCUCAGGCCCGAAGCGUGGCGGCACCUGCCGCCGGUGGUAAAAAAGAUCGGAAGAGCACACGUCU

Variants of: B1
Test: aptazyme ON/OFF ratio, guanine; higher = stronger switching; co-transcriptional cleavage with and without guanine
Would you mind telling me the reported aptazyme ON/OFF ratio of each entry?
Give your answer as a number; write no unit.

Enquiry: Retrieve aptazyme ON/OFF ratio measured for U7C U8A U10C U11A C12A and print it.
Return: 1.27

Enquiry: Answer with reported aptazyme ON/OFF ratio of U7C U10G U11G C12U C13A
Return: 1.13

Enquiry: Fill in aptazyme ON/OFF ratio for record U7C U8C U10G U11G
Return: 1.49

Enquiry: Return reported aptazyme ON/OFF ratio. Input variant: U7G U8G G9A U10C U11C C12A C13U
Return: 1.11

Enquiry: Input U7A U8G G9C C12U C13G , output reported aptazyme ON/OFF ratio.
Return: 1.22

Enquiry: Specify reported aptazyme ON/OFF ratio for the variant shown: G9A U10C U11G C12G C13G
Return: 1.12

Enquiry: // fetch aptazyme ON/OFF ratio given entry U7C U10C U11G C12G
Return: 1.3

Enquiry: // fetch aptazyme ON/OFF ratio given entry U7A U8G G9C U10C U11C C12A
Return: 1.06

Enquiry: Read off the recorded aptazyme ON/OFF ratio for G9C U10G U11A C12G
Return: 1.27

Enquiry: Return the recorded aptazyme ON/OFF ratio value; entry: U7C G9A U10C U11G C12A
Return: 1.28

Enquiry: For the variant G9C U10C U11G C13A , give its measured aptazyme ON/OFF ratio value.
Return: 1.06

Enquiry: Recall and state the measured aptazyme ON/OFF ratio for G9U U10C U11C C12G C13A .
Return: 1.08

Enquiry: Respond only with aptazyme ON/OFF ratio recorded for U7G G9C U10C U11A C12G C13U
Return: 1.31

Enquiry: Given the variant U7A U8C G9A U11G C12G , write its reported aptazyme ON/OFF ratio.
Return: 1.24

Enquiry: # return recorded aptazyme ON/OFF ratio for entry G9C U10G U11G C12A C13U
Return: 1.11

Enquiry: Tell me its aptazyme ON/OFF ratio given U8A G9U U10C U11C as the entry.
Return: 1.04

Enquiry: Determine its reported aptazyme ON/OFF ratio: U7A U8G U10A U11A C12A
Return: 1.47

Enquiry: Using known records, supply aptazyme ON/OFF ratio for U7C U8G G9U U10G U11G C12U C13G
Return: 1.18

Enquiry: Input U8C G9C U10A U11A C12A , output reported aptazyme ON/OFF ratio.
Return: 1.12

Enquiry: Output aptazyme ON/OFF ratio of U7A U8A G9U U10A U11G C13G
Return: 1.13

Enquiry: Return value of aptazyme ON/OFF ratio for input U7C G9C U10A U11G C12U C13G , no commentary.
Return: 1.08

Enquiry: Read the entry C12U C13G and write its reported aptazyme ON/OFF ratio.
Return: 1.29

Enquiry: Look up and state reported aptazyme ON/OFF ratio for U8G U10C
Return: 3.87

Enquiry: Tell us which aptazyme ON/OFF ratio value is on record for U8G G9A U11C C12A
Return: 1.34

Enquiry: Name the recorded aptazyme ON/OFF ratio of the variant listed here: U7G U10C U11G C12A C13A
Return: 1.11

Enquiry: Fill in reported aptazyme ON/OFF ratio for this entry: U7A G9A U11A C12A C13U
Return: 1.44

Enquiry: Using known records, supply aptazyme ON/OFF ratio for U8C U11A C12G
Return: 1.25

Enquiry: Identify the reported aptazyme ON/OFF ratio for the following entry. U8A G9U U10G U11A C12A C13A
Return: 1.22

Enquiry: Note aptazyme ON/OFF ratio for the variant shown: U8C G9C U10A C12G C13A
Return: 1.2

Enquiry: Tell me measured aptazyme ON/OFF ratio for U7G U8C G9U U10G U11C C12U C13A please.
Return: 1.34

Enquiry: Determine from records and report aptazyme ON/OFF ratio for U7A U8G G9U U10G U11A C12A C13G
Return: 1.39

Enquiry: Give the value of aptazyme ON/OFF ratio reported for the following: U7C U8C U11C C12A C13G
Return: 1.18

Enquiry: Provide one value: measured aptazyme ON/OFF ratio of U8G G9C U10G U11C C12G C13G
Return: 1.05

Enquiry: Report aptazyme ON/OFF ratio, nothing else, for this variant: U8G G9U U11C C12G C13A
Return: 1.04

Enquiry: Please look at this variant and report its aptazyme ON/OFF ratio: U7A U8C G9A U10G U11A C12A
Return: 1.13

Enquiry: Provide aptazyme ON/OFF ratio value for the following variant: U7G U8G U11G C12U C13A
Return: 1.5

Enquiry: Retrieve aptazyme ON/OFF ratio measured for U7C U8C G9C U10A U11G C12U C13U and print it.
Return: 1.1

Enquiry: Provide measured aptazyme ON/OFF ratio value, entry: U7C U8C G9A U11C C12A C13G
Return: 1.19

Enquiry: Quick one: give measured aptazyme ON/OFF ratio for U7A U8G U10C U11G C12G C13A
Return: 1.19

Enquiry: Return the recorded aptazyme ON/OFF ratio value; entry: U7G U8G G9A U10C U11A C12U C13G
Return: 1.08

Enquiry: Give a short answer stating reported aptazyme ON/OFF ratio for U7G U8A G9U U10C .
Return: 3.13

Enquiry: Complete the entry with aptazyme ON/OFF ratio for U7G U8C G9C U10G U11A C12U C13G
Return: 1.04

Enquiry: State, in one line, measured aptazyme ON/OFF ratio of U7C U8C G9U U10A
Return: 1.13

Enquiry: Please indicate aptazyme ON/OFF ratio recorded for U7G G9A U10C C12A
Return: 1.28

Enquiry: Complete the entry with aptazyme ON/OFF ratio for U7A U8G G9A U11A C12G
Return: 1.37

Enquiry: Find the measured aptazyme ON/OFF ratio of U7C U8G G9A U11C C12A C13U and report it.
Return: 1.14
